Molecular target: GST-Rok (full length) (Bacillus subtilis subsp. subtilis str. …, UniProt O34857 1-191)
Sequence: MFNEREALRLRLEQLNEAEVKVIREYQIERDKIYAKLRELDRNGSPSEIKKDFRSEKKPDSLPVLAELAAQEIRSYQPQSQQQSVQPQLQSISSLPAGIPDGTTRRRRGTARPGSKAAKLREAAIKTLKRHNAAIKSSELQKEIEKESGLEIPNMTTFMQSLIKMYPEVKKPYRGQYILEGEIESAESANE
Experiment: protein binding microarray; Rok is a gene silencer of Bacillus subtilis; high values mean tight binding
Settings: protein: recombinant; tags: GST (pTH5325, pDEST15-Magic modified); dsDNA, one strand shown
The full ranking holds about 33,000 sequences; the median of “e-score” is about -0.037, and the highest 2% start at about 0.34. The list comes from a sample in which the highest values are over-represented; it also holds close analogues and randomly drawn sequences.
Give binding signal for every item shown.
Quick note: number first, unit second.

Suppose we examine the sequence CATACTAG ; what binding signal value has been reported?
0.312 E-score

What binding signal value was documented for this sequence, ACCGTACT ?
0.0822 E-score

Looking for the measured binding signal of CCATCTAG , can you help?
-0.0113 E-score

What value of measured binding signal is listed for CCTCGGTA ?
0.0273 E-score

Recorded binding signal of AGCGACAG , please.
-0.152 E-score

Entry AGTAGCGA : reported binding signal = ?
0.181 E-score

Reported binding signal for ATTAACTC : what is it?
0.092 E-score

Field request: binding signal | item: GTTAAGTA
0.191 E-score

Can you look up the measured binding signal of ACTCGGTA for me?
0.363 E-score

Given GATACTAA , state its recorded binding signal.
0.307 E-score

Any idea what its binding signal is? The sequence is ACTCGGTC
-0.0736 E-score

Which binding signal value belongs to CGTGCGGA ?
-0.0584 E-score

What measured binding signal goes with AATACTCA ?
0.174 E-score

I have this sequence here, GATACTAC , and I need its recorded binding signal.
0.278 E-score

I am curious: what binding signal value has been reported for CCTAACAG ?
0.0291 E-score

Item under review: TGTGAGAA . Reported binding signal?
0.216 E-score

Returns the measured binding signal for the input sequence. Input: GTTAACGA
0.241 E-score

Using the record for AGGTATGC , report its binding signal.
0.154 E-score

Would you mind telling me what binding signal value was observed for CTTAAGTA ?
0.281 E-score

Which binding signal value belongs to AATACTAG ?
0.341 E-score

Using the record for AATACTCG , report its binding signal.
0.085 E-score

Tell me the measured binding signal of AATACTAC , please.
0.419 E-score

Each recorded value in this set is attributed to paper PMC6212790.
